Hello, the source for this data is the RNAGym collection of RNA variant scans (doi:10.1073/pnas.2313332121), in case you need it.

B1: TPR 5TU (parent)
chain: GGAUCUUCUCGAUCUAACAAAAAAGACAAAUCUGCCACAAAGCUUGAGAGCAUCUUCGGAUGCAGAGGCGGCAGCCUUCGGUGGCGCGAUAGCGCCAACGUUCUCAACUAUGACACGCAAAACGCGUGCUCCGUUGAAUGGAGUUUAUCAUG

- Variants of: B1
- METHOD SUMMARY: polymerase ribozyme fitness, log enrichment relative to wild type (log ratio); higher = more active; in vitro selection for triplet polymerase activity
This sample holds only a part of the variants without activity.
OUTCOME MEASURE: polymerase ribozyme fitness (log ratio)
Lab note: jot the number down without any unit.

1. G92U A106G: -0.318
2. A22U G86U A120U: -1.56

Incoming: # query: polymerase ribozyme fitness (log ratio) of entry G83A C95G
Outgoing: -1.23

Incoming: Recorded polymerase ribozyme fitness (log ratio) of C57U C105G , please.
Outgoing: -0.3

Incoming: # lookup: polymerase ribozyme fitness (log ratio) of C5A C85U
Outgoing: -0.371
